Source of measurements: paper PMC7481482

The molecules below have reported pIC50 for human NTPDase3 (Homo sapiens).
Expect pIC50 as a plain number equal to -log10 of the molar concentration.

Nc1c(S(=O)(=O)O)cc(Nc2ccc(Nc3nc(Cl)nc(Nc4cccc(S(=O)(=O)O)c4)n3)c(S(=O)(=O)O)c2)c2c1C(=O)c1ccccc1C2=O [Compound 5, reactive blue-2, reference compound] ... 6.03
Nc1c(S(=O)(=O)O)cc(Nc2cccc(C(=O)O)c2)c2c1C(=O)c1ccccc1C2=O ... 5.51
Nc1ccc(Nc2cc(S(=O)(=O)O)c(N)c3c2C(=O)c2ccccc2C3=O)cc1S(=O)(=O)O ... 5.76
Nc1c(S(=O)(=O)O)cc(Nc2ccc(Cl)cc2C(=O)O)c2c1C(=O)c1ccccc1C2=O ... 5.39
Nc1c(S(=O)(=O)O)cc(Nc2cccc3cccc(S(=O)(=O)O)c23)c2c1C(=O)c1ccccc1C2=O ... 5.79

The molecule listed as Nc1c(S(=O)(=O)O)cc(Nc2cccc(Cc3ccccc3)c2)c2c1C(=O)c1ccccc1C2=O has a reported pIC50 of 4.88

The molecule listed as Nc1c(S(=O)(=O)O)cc(Nc2ccc(S(=O)(=O)O)c(Nc3nc(Cl)nc(Cl)n3)c2)c2c1C(=O)c1ccccc1C2=O has a reported pIC50 of 6.41

----------
molecular target: human NTPDase2 (Homo sapiens, UniProt Q9Y5L3); construct: expressed in transfected cells; host or cells: COS-7 cells (membrane preparation); experiment: Malachite green assay, human NTPDase2; format: biochemical; conditions: 2 μM compound; 100 µM ATP; COS-7 membrane preparation; read-out: % inhibition at 2 μM concentration, NTPDase2
Sequence (Q9Y5L3 whole entry): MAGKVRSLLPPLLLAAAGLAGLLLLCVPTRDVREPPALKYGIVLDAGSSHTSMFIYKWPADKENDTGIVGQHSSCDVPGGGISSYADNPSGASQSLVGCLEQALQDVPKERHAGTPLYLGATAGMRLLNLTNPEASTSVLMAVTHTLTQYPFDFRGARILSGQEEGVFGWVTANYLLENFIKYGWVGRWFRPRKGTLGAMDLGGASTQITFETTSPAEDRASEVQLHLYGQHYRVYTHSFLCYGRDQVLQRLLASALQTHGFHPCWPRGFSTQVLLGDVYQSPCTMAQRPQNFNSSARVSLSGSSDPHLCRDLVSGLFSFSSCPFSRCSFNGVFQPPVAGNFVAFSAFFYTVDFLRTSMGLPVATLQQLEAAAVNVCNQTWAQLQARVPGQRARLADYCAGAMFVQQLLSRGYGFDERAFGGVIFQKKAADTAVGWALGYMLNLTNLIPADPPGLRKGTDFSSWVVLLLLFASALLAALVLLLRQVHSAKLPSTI
Measured quantity: inhibition at 2 µM (%)
Write down the numeric answer in % and omit the unit.

Nc1c(S(=O)(=O)O)cc(Nc2ccc(Cl)cc2C(=O)O)c2c1C(=O)c1ccccc1C2=O ... -2
Nc1c(S(=O)(=O)[O-])cc(Nc2ccccc2CO)c2c1C(=O)c1ccccc1C2=O.[Na+] ... 12
Nc1c(S(=O)(=O)O)cc(Nc2cccc(F)c2)c2c1C(=O)c1ccccc1C2=O ... 15

The molecule listed as Nc1c(S(=O)(=O)O)cc(Nc2cccc3cccc(S(=O)(=O)O)c23)c2c1C(=O)c1ccccc1C2=O has a reported inhibition at 2 µM of 15

The molecule listed as Nc1c(S(=O)(=O)O)cc(Nc2cccc3ccccc23)c2c1C(=O)c1ccccc1C2=O has a reported inhibition at 2 µM of 31

----------
molecular target: human NTPDase1 (Homo sapiens, UniProt P49961); construct: expressed in transfected cells; host or cells: COS-7 cells (membrane preparation); assay: Malachite green assay, human NTPDase1; type: biochemical; settings: 2 μM compound; 50 µM ATP; COS-7 membrane preparation; read-out: % inhibition at 2 μM concentration, NTPDase1
Sequence (P49961 whole entry): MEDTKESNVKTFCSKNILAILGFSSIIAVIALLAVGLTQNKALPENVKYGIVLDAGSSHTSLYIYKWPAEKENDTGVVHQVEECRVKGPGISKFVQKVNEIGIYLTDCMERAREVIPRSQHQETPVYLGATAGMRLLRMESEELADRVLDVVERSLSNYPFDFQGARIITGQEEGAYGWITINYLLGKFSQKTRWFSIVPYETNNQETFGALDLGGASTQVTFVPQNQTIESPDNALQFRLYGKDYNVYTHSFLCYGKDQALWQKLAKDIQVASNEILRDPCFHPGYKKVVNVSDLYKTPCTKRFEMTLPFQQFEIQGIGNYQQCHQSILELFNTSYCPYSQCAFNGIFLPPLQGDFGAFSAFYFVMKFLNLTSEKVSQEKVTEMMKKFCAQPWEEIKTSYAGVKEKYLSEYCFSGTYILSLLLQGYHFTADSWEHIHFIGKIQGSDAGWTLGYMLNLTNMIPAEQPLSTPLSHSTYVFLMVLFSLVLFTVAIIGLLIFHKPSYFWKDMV
Measured quantity: inhibition at 2 µM (%)
Write down the numeric answer in % and omit the unit.

Answered examples (4):
Nc1c(S(=O)(=O)O)cc(Nc2cccc(F)c2)c2c1C(=O)c1ccccc1C2=O [Compound 21] ... -8
Cc1cccc(Nc2cc(S(=O)(=O)O)c(N)c3c2C(=O)c2ccccc2C3=O)c1 [Compound 6, reference compound] ... -4
Nc1c(S(=O)(=O)O)cc(Nc2cccc(C(=O)O)c2)c2c1C(=O)c1ccccc1C2=O [Compound 26] ... -17
Nc1c(S(=O)(=O)[O-])cc(Nc2cccc(Cl)c2Cl)c2c1C(=O)c1ccccc1C2=O.[Na+] [Compound 34] ... 1

The molecule listed as Nc1c(S(=O)(=O)[O-])cc(Nc2cccc(Sc3ccccc3)c2)c2c1C(=O)c1ccccc1C2=O.[Na+] [Compound 41] has a reported inhibition at 2 µM of 1

The molecule listed as Nc1c(S(=O)(=O)O)cc(Nc2ccc3cc(C(=O)O)ccc3c2)c2c1C(=O)c1ccccc1C2=O [Compound 19] has a reported inhibition at 2 µM of 0

The molecule listed as Cc1ccc(Sc2ccc(Nc3cc(S(=O)(=O)O)c(N)c4c3C(=O)c3ccccc3C4=O)cc2)cc1C [Compound 51] has a reported inhibition at 2 µM of 51

The molecule listed as Nc1c(S(=O)(=O)[O-])cc(Nc2ccc(Sc3ccc(Cl)cc3)cc2)c2c1C(=O)c1ccccc1C2=O.[Na+] [Compound 45] has a reported inhibition at 2 µM of 52

The molecule listed as Nc1c(S(=O)(=O)O)cc(Nc2ccc(Sc3ccccc3)cc2)c2c1C(=O)c1ccccc1C2=O [Compound 44] has a reported inhibition at 2 µM of 15

The molecule listed as Cc1cc(Nc2cccc(F)c2)c2c(c1N)C(=O)c1ccccc1C2=O [Compound 54] has a reported inhibition at 2 µM of -4

The molecule listed as O=C(O)c1cc(Nc2cc(S(=O)(=O)O)cc3c2C(=O)c2ccccc2C3=O)ccc1O [Compound 58] has a reported inhibition at 2 µM of 1

The molecule listed as Nc1c(S(=O)(=O)O)cc(NCc2ccccc2)c2c1C(=O)c1ccccc1C2=O [Compound 12] has a reported inhibition at 2 µM of -10

The molecule listed as Nc1c(S(=O)(=O)O)cc(Nc2cc3ccccc3c3ccccc23)c2c1C(=O)c1ccccc1C2=O [Compound 20] has a reported inhibition at 2 µM of -7

The molecule listed as Nc1c(S(=O)(=O)O)cc(Nc2ccccc2)c2c1C(=O)c1ccccc1C2=O [Compound 14] has a reported inhibition at 2 µM of -13
